The values you see were collected from patent US8232406B2.

c-MET (Homo sapiens, UniProt P08581) Ki data
Sequence (P08581 25-1390): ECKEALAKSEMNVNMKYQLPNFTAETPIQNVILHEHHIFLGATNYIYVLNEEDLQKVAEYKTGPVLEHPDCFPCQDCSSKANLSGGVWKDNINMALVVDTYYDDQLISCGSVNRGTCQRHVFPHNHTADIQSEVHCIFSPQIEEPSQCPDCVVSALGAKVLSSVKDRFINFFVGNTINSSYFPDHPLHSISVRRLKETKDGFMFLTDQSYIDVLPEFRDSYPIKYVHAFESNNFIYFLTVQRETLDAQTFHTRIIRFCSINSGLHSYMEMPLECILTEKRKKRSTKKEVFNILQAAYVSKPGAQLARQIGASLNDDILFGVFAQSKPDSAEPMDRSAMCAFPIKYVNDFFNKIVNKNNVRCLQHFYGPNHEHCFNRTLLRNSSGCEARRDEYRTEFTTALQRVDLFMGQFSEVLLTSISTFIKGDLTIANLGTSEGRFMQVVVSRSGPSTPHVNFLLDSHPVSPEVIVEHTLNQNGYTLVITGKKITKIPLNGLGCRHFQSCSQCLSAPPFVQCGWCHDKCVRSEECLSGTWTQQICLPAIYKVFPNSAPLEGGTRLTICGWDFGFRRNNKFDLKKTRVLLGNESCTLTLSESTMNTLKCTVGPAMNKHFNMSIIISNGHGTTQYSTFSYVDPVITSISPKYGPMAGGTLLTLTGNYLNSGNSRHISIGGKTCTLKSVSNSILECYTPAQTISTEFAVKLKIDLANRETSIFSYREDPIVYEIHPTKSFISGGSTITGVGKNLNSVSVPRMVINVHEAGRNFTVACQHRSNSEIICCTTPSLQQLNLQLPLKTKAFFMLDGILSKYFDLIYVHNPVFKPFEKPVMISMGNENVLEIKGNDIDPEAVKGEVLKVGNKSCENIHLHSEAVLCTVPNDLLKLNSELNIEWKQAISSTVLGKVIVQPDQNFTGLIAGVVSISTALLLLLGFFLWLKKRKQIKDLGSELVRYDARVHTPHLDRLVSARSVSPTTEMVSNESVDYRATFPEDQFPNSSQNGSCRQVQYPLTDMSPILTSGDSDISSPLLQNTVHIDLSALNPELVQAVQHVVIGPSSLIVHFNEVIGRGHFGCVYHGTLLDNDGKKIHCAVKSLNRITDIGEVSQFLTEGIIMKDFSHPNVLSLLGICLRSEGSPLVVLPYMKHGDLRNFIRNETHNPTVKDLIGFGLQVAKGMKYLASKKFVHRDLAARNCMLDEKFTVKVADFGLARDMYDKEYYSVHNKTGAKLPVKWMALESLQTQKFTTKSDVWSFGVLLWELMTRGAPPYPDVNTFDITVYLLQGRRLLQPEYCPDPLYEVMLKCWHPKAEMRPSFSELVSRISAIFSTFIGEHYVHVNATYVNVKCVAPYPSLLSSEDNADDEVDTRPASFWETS

Study these solved cases before continuing.
| molecule | assay-system | Ki |
| --- | --- | --- |
| Nc1ncc(-c2cnn(C3CCN(CC4CCCC4)CC3)c2)cc1-c1nnnn1-c1cccc(Cl)c1F [I-A-474] | c-MET (Homo sapiens, UniProt P08581) | ≤ 100 nM |
| CN(C)Cc1ccc(-c2cnc(N)c(-c3nnnn3-c3cccc(Cl)c3F)c2)cc1 [I-A-360] | c-MET (Homo sapiens, UniProt P08581) | ≤ 100 nM |
| Nc1ncc(-c2cnn(C3CCN(CC(F)F)CC3)c2)cc1-c1nncn1-c1cccc(Cl)c1F [I-A-460] | c-MET (Homo sapiens, UniProt P08581) | ≤ 100 nM |

Would you kindly look at the next entry?
GET /values?item= CC(=O)Nc1cccc(-c2cnc(N)c(-c3nnnn3-c3c(F)ccc(F)c3Cl)c2)c1 [I-A-613] &system= c-MET (Homo sapiens, UniProt P08581) returns Ki: 100 to 1000 nM

====

assay-system: c-MET (Homo sapiens, UniProt P08581)
pKi: −log10 of the molar value.
quantity: pKi

| smiles-entry | pKi |
| --- | --- |
| Nc1ncc(-c2ccc(CN3CCCC3)cc2)cc1-c1nc2cccnc2n1-c1cccc(Cl)c1F | 6.00 to 7.00 |
| COc1ccc(F)cc1-n1nnnc1-c1cc(-c2cnn(C3CCNCC3)c2)cnc1N | 6.00 to 7.00 |
| Nc1ncc(-c2ccccc2O)cc1-c1nncn1-c1cccc(Cl)c1Cl | 6.00 to 7.00 |
| Nc1ncc(-c2ccccc2O)cc1-c1nnnn1-c1cccc(F)c1F | ≥ 7.00 |
| Nc1ncc(-c2cnn([C@@H]3CCNC3)c2)cc1-c1nnnn1-c1cccc(Cl)c1F | ≥ 7.00 |
| COC(=O)C(C)(C)c1ccc(-c2cnc(N)c(-c3nnnn3-c3cccc(F)c3F)c2)cc1 | ≥ 7.00 |

Case CC(C)C(=O)Nc1ccc(-c2cnc(N)c(-c3nnnn3-c3cccc(F)c3F)c2)cc1 , c-MET (Homo sapiens, UniProt P08581), pKi recorded as ≥ 7.00

Summary: Nc1ncc(-c2ccc(CN3CCCC3)cc2)cc1-c1nnnn1-c1c(F)ccc(Cl)c1F , c-MET (Homo sapiens, UniProt P08581), pKi = ≥ 7.00

So the reported pKi for CC(C)(C#N)c1ccc(-c2cnc(N)c(-c3nnnn3-c3cccc(F)c3F)c2)cc1 , on c-MET (Homo sapiens, UniProt P08581), turned out to be ≥ 7.00

Observed pKi on c-MET (Homo sapiens, UniProt P08581), entry CC(=O)Nc1cccc(-c2cnc(N)c(-c3nnnn3-c3cccc(F)c3F)c2)c1 , equals ≥ 7.00

Short answer on c-MET (Homo sapiens, UniProt P08581) for CN1CCN(Cc2ccc(-c3cnc(N)c(-c4nncn4-c4cccc(F)c4F)n3)cc2)CC1 , pKi: ≥ 7.00

Tested on c-MET (Homo sapiens, UniProt P08581), the item CC(=O)Nc1ccc(-c2cnc(N)c(-c3nncn3-c3cccc(F)c3F)n2)cc1 showed pKi equal to ≥ 7.00

Value sought: pKi, system c-MET (Homo sapiens, UniProt P08581), item CC(C)OC(=O)N1CC=C(c2cnc(N)c(-c3nnnn3-c3cccc(F)c3F)c2)CC1 . Result: ≥ 7.00

Given the compound Nc1ncc(-c2cc3c(s2)CNCC3)cc1-c1nnnn1-c1cccc(F)c1F and test system c-MET (Homo sapiens, UniProt P08581), the measured pKi is ≥ 7.00

# value of pKi, c-MET (Homo sapiens, UniProt P08581), item Nc1ncc(-c2cnn(C3CCNCC3)c2)cc1-c1nnnn1-c1cccc(F)c1Cl = ≥ 7.00

====

assay-system: c-MET (Homo sapiens)
Some molecules, each annotated with its measured Ki.

Worked cases, answers included:
| molecule | assay-system | Ki |
| --- | --- | --- |
| CN(C)CC(=O)N1CCC(n2cc(-c3cnc(N)c(-c4nnnn4-c4cccc(Cl)c4F)c3)cn2)CC1 [I-A-444] | c-MET (Homo sapiens) | ≤ 100 nM |
| N#Cc1ccc(-c2cnc(N)c(-c3nnnn3-c3cccc(Cl)c3Cl)c2)cc1 [I-A-89] | c-MET (Homo sapiens) | 100 to 1000 nM |
| CC(c1ccc(-c2cnc(N)c(-c3nnnn3-c3cccc(Cl)c3Cl)c2)cc1)N(C)C (centres unmarked) [I-A-100] | c-MET (Homo sapiens) | ≤ 100 nM |

The reported Ki value, c-MET (Homo sapiens), for N#Cc1cccc(-c2cnc(N)c(-c3nncn3-c3cccc(F)c3F)n2)c1 [I-A-30] reads 100 to 1000 nM

Case Nc1ncc(-c2ccc(N3CCCC3)nc2)cc1-c1nncn1-c1cccc(F)c1F [I-A-40] , c-MET (Homo sapiens), Ki recorded as 100 to 1000 nM

Note to self: Ki of Nc1ncc(C2=CCN(C(=O)C3CCCOC3)CC2)cc1-c1nnnn1-c1cccc(F)c1F (centres unmarked) [I-A-522] with c-MET (Homo sapiens) was ≤ 100 nM

Entry Nc1ncc(-c2ccc(CN3CCOCC3)cc2)nc1-c1nnc(O)n1-c1cccc(F)c1F [I-A-16] ; assay system c-MET (Homo sapiens); Ki recorded at 100 to 1000 nM

Short answer on c-MET (Homo sapiens) for Nc1ncc(-c2cccc3c2OCO3)cc1-c1nnnn1-c1cccc(F)c1F [I-A-305] , Ki: ≤ 100 nM

====

Below, each of the molecules is paired with its reported Ki value.
assay-system: c-MET (Homo sapiens, UniProt P08581)

| molecule | assay-system | quantity | recorded-result |
| --- | --- | --- | --- |
| CN(C)Cc1ccc(-c2cnc(N)c(-c3nnnn3-c3c(Cl)cccc3Cl)c2)cc1 [I-A-629] | c-MET (Homo sapiens, UniProt P08581) | Ki | ≤ 100 nM |
| Nc1ncc(-c2cnn(C3CCCNCC3)c2)cc1-c1nnnn1-c1cccc(Cl)c1F (centres unmarked) [I-A-651] | c-MET (Homo sapiens, UniProt P08581) | Ki | ≤ 100 nM |
| Nc1ncc(-c2ccc(NC(=O)CN3CCC[C@H]3CO)cc2)cc1-c1nnnn1-c1cccc(F)c1F [I-A-160] | c-MET (Homo sapiens, UniProt P08581) | Ki | 100 to 1000 nM |
| Nc1ncc(-c2ccc(CN3CCCCC3)cc2)cc1-c1nnnn1-c1cccc(F)c1F [I-A-134] | c-MET (Homo sapiens, UniProt P08581) | Ki | ≤ 100 nM |
| CN1CCN(c2ccc(-c3cnc(N)c(-c4nnnn4-c4cccc(F)c4F)n3)cc2)CC1 [I-A-46] | c-MET (Homo sapiens, UniProt P08581) | Ki | ≤ 100 nM |

// Ki value for Nc1ncc(-c2cccnc2)cc1-c1nnnn1-c1c(Cl)cccc1Cl [I-A-609] : 100 to 1000 nM

Entry under test: CC(=O)Nc1ccc(-c2cnc(N)c(-c3nnnn3-c3cc(Cl)ccc3C)c2)cc1 [I-A-576] . Its Ki was 100 to 1000 nM

The measured Ki associated with Nc1ncc(C2=CCN(C(=O)C3CCCNC3)CC2)cc1-c1nnnn1-c1cccc(F)c1F (centres unmarked) [I-A-423] reads ≤ 100 nM

Record summary for CN1CCN(c2ccc(-c3cnc(N)c(-c4ncsc4-c4cccc(Cl)c4Cl)c3)cc2)CC1 [I-C-11] : reported Ki = 100 to 1000 nM

Form field Ki, entry CC(=O)Nc1cccc(-c2cnc(N)c(-c3nnnn3-c3cccc(F)c3C)c2)c1 [I-A-564] : 100 to 1000 nM

Form field Ki, entry CN(C)c1ccc(-c2cnc(N)c(-c3nncn3-c3cccc(Cl)c3Cl)c2)cc1 [I-A-72] : 100 to 1000 nM

Entry Nc1ncc(-c2cnn(C3CCNCC3)c2)cc1-c1nnnn1-c1cccc(Cl)c1Cl [I-A-371] , Ki reported as ≤ 100 nM

Looking up CC(=O)N1CCC(n2cc(-c3cnc(N)c(-c4nnc(C)n4-c4cccc(Cl)c4F)c3)cn2)CC1 [I-A-457] , I found its Ki recorded as ≤ 100 nM

====

Observed pKi for UniProt:P08581, reported per entry below.
pKi: −log10 of the molar value.

As a guide, the following entries are already answered.
| smiles-entry | pKi |
| --- | --- |
| CN(C)CCCN(C)Cc1ccc(-c2cnc(N)c(-c3nnnn3-c3cccc(Cl)c3Cl)c2)cc1 | ≥ 7.00 |
| CC(=O)N1CC=C(c2cnc(N)c(-c3nnnn3-c3cccc(F)c3F)c2)CC1 | ≥ 7.00 |
| CN1CCN(Cc2ccc(-c3cnc(N)c(-c4nnc(O)n4-c4cccc(F)c4F)c3)cc2)CC1 | 6.00 to 7.00 |
| Nc1ncc(-c2ccc(CN3CCCC3)s2)cc1-c1nnnn1-c1cccc(F)c1F | ≥ 7.00 |
| CC(=O)Nc1cccc(-c2cnc(N)c(-c3nnnn3-c3cccc(Cl)c3)c2)c1 | 6.00 to 7.00 |

Lab book: pKi of Nc1ncc(-c2ccc(NC(=O)Nc3cccnc3)cc2)cc1-c1nnnn1-c1cccc(F)c1F noted as 6.00 to 7.00

Reported pKi for Cc1c(Cl)cccc1-n1nnnc1-c1cc(-c2cnn(C3CCNCC3)c2)cnc1N was ≥ 7.00

Nc1ncc(-c2ccc(CN3CCCC3)cc2)cc1-c1nnnn1-c1c(F)cccc1F has a reported pKi of ≥ 7.00

Quick note, pKi for Nc1ncc(-c2cccnc2)nc1-c1nncn1-c1cccc(F)c1F landed at 6.00 to 7.00

Lab note: measured pKi of Nc1ncc(-c2ccc(CN3CCOCC3)cc2)nc1-c1nncn1-c1cccc(F)c1F was ≥ 7.00

Form field pKi, entry Nc1ncc(-c2ccc(CN3CC[C@H](O)C3)cc2)cc1-c1nnnn1-c1cccc(Cl)c1Cl : ≥ 7.00

The reported value for CC(C)(C)NC(=O)Nc1ccc(-c2cnc(N)c(-c3nnnn3-c3cccc(F)c3F)c2)cc1 in terms of pKi is ≥ 7.00

# pKi (molecule: CN1CCN(Cc2ccc(-c3cnc(N)c(-c4nnnn4-c4cccc(F)c4F)c3)cc2)CC1 ) is ≥ 7.00
